Test system: Trichomonas vaginalis
Experiment: Antitrichomonal activity against Trichomonas vaginalis after 48 hrs by trypan blue exclusion assay
Type: functional
Note to self: use 1 (yes) only for MIC readings below 10 µM; a reading exactly at 10 µM still gets 0 (no).

Q: Field: below-cutoff. Rule: recorded MIC strictly less than 10 µM. Subject: Cc1ncc([N+](=O)[O-])n1CCCl
A: 1 (yes)

Next:
Q: In plain terms, does Cc1ncc([N+](=O)[O-])n1CCSC(=S)N1CCOCC1 come in under 10 µM for MIC?
A: 1 (yes)

Q: Now give it for COc1ccccc1N1CCN(C(=S)SCCn2c([N+](=O)[O-])cnc2C)CC1.O=C(O)C(O)C(O)C(=O)O too.
A: 1 (yes)

Q: Moving on to CS(=O)(=O)[O-].Cc1ncc([N+](=O)[O-])n1CC[n+]1ccccc1
A: 1 (yes)
